tested on: MOLT-4 leukemia; assay: NCI-60 one-dose screen, 48 h (100 = growth as untreated, 0 = no growth, -100 = all killed); conditions: 10 µM unless noted
This is part of a sample that, as a whole, favours compounds with a hit. Of some 83,000 tested, about 20% had one in any assay.
Please provide measured growth for the entries that follow.
Field format: number, assumed %, no unit text.

Q) // lookup growth for "Cn1c(SCC(=O)c2cccs2)nc2ccccc2c1=O"
A) 87

Q) // lookup growth for "Cc1sc2c(c1C)c(=O)nc1c(-c3nc(-c4ccc(F)cc4)no3)n[nH]n12"
A) 104

Q) // lookup growth for COc1cc2nc(-c3ccc(C(F)(F)F)cc3)cc(OCCCNCC3CCCO3)c2cc1OC (stereo unspecified)
A) 14.3

Q) // lookup growth for "CC(=O)c1ccc(Nc2nc(SC(C)C)nc(-c3ccccc3)c2C#N)cc1"
A) 96.4

Q) // lookup growth for "CN(C)CCCNc1c2ccccc2nc2c1oc1ccc(Cl)cc12"
A) 3.74

Q) // lookup growth for "CN1CCc2c(sc3ncnc(N/N=C/c4ccc(Cl)c(Cl)c4)c23)C1"
A) 26.6

Values were extracted from PubChem BioAssay (NCI).
